System: BDF1 mice, P388 leukemia ip, median survival T/C
test: NCI In Vivo Anticancer Drug Screen. Data for tumor model P388 Leukemia (intraperitoneal) in B6D2F1 (BDF1) mice
measurementConditions: endpoint: median survival time; dose: 12.5 mg/kg/injection; schedule: Q04DX003 (ip); vehicle: saline with Tween-80
Inconclusive results and toxic doses are left out. The calls were made as follows: active = survival T/C of 150% or more; inactive = T/C below 125% in these data.
Classes used: active, inactive

compound: CCOC(=O)C(CCSC(C)=O)SC(C)=O (configuration not stated)
systemTested: BDF1 mice, P388 leukemia ip, median survival T/C
assignedCategory: inactive

compound: CC1=C(C)Cc2c(c(OC(=O)c3ccccc3)cc(Cl)c2OC(=O)c2ccccc2)C1
systemTested: BDF1 mice, P388 leukemia ip, median survival T/C
assignedCategory: inactive

compound: COc1cc(C=Nc2cccc(Br)c2)ccc1N(CCCl)CCCl
systemTested: BDF1 mice, P388 leukemia ip, median survival T/C
assignedCategory: active

compound: CNC(=N)c1ccc(NC(=N)c2ccc(NC(=O)Nc3ccc(C(=N)Nc4ccc(C(=N)NC)cc4)cc3)cc2)cc1
systemTested: BDF1 mice, P388 leukemia ip, median survival T/C
assignedCategory: inactive

compound: Cc1[nH]c(C)c(C(=O)OC2CCN(C)CC2)c1C
systemTested: BDF1 mice, P388 leukemia ip, median survival T/C
assignedCategory: inactive

compound: O=[N+]([O-])c1ccc([N+](=O)[O-])c(Cl)c1
systemTested: BDF1 mice, P388 leukemia ip, median survival T/C
assignedCategory: inactive

compound: CC1=CC(C(O)C(C)C)C(C)(Cc2ccc(C)cn2)NC1c1ccccc1 (configuration not stated)
systemTested: BDF1 mice, P388 leukemia ip, median survival T/C
assignedCategory: inactive
